I'd be grateful if you could share measured melting point for these entries.

What value of melting point has been reported for the following compound? CCn1ncc(C(=O)c2ccc(S(C)(=O)=O)c(C3=NOC4CC34)c2C)c1O (stereo not shown)
94 to 97 °C

Next entry: Cc1c(C(=O)c2cnn(C(C)(C)C)c2O)ccc(S(C)(=O)=O)c1C1=NOC2(C)CC12 (stereo not shown)
90 to 95 °C

Next entry: Cc1c(C(=O)c2cnn(C)c2O)ccc(S(C)(=O)=O)c1C1=NOC2(C)CC12 (stereo not shown)
98 to 102 °C

Next entry: Cc1c(C(=O)c2cnn(C)c2O)ccc(S(C)(=O)=O)c1C1=NOC2CC12C (stereo not shown)
99 to 103 °C

Next entry: Cc1c(C(=O)c2cnn(C(C)C)c2O)ccc(S(C)(=O)=O)c1C1=NOC2(C)CC12 (stereo not shown)
67 to 70 °C

Next entry: Cc1c(C(=O)c2cnn(C(C)C)c2O)ccc(S(C)(=O)=O)c1C1=NOC2CC12C (stereo not shown)
75 to 80 °C

Next entry: Cc1nn(C)c(O)c1C(=O)c1ccc(S(C)(=O)=O)c(C2=NOC3CC23)c1C (stereo not shown)
89 to 91 °C
